- Test system: SF-268 CNS
- method.description: NCI-60 one-dose screen, 48 h (100 = growth as untreated, 0 = no growth, -100 = all killed)
- reported.conditions: 10 µM
About 83,000 compounds went through this panel and 20% of them were active in at least one assay; those are over-represented in the sample as a whole.
growth values for the compounds below.
endpoint: growth (%)

# compound, unit.of.measure, endpoint.value
rows = [
    ("CCOC(=O)Cn1c(=O)c2sc3ncccc3c2n2nnc(-c3ccccc3)c12", "%", 112),
    ("Nc1ccc(-c2cccs2)cc1NC(=O)c1ccc(CCCC(=O)Nc2ccc(C3CC3N)cc2)cc1 (stereo not given)", "%", 104),
    ("CCCCc1oc2ccccc2c1C(=O)c1cc(I)c(OCCN(CC)CC)c(I)c1", "%", 30.8),
    ("Cc1cc(C)nc(NS(=O)(=O)c2ccc(Nc3nc4nc(NCc5ccccc5)nc(-c5ccc(O)cc5)c4c(=O)[nH]3)cc2)n1", "%", 27.8),
    ("O=C(Nc1nc(-c2ccccc2)nc2c1sc(=S)n2-c1ccccc1)C(F)(F)F", "%", 98.4),
]

---

- Test system: RPMI-8226 leukemia
- method.description: NCI-60 one-dose screen, 48 h (100 = growth as untreated, 0 = no growth, -100 = all killed)
- reported.conditions: 10 µM
The panel holds about 83,000 compounds, 20% with a hit somewhere; the sample as a whole holds those more often.

# compound, growth (%)
measured = [
    ("COc1ccc2cc(-c3nc4ccccc4s3)c(Cl)nc2c1OC", 101),
    ("CCN(CC)CCOc1cccc2c1C(=O)c1cccc(OCCN(CC)CC)c1C2=O", 11),
    ("C1CN(CC2CCC(CN3CCOCC3)O2)CCO1 (stereo not given)", 92.3),
    ("CN(C)CCCOc1ccc(NC2=C(Cl)C(=O)C(Nc3ccc(OCCCN(C)C)cc3)=C(Cl)C2=O)cc1", -44.1),
    ("COc1ccc(C(c2ccc(OCCN(C)C)cc2)c2cc3ccccc3c3ccccc23)cc1 (stereo not given)", 13.2),
    ("C=CCNCCN1C(=O)c2ccc3c4c(ccc(c24)C1=O)C(=O)N(CCNCC=C)C3=O", 13.5),
    ("CCOC(=O)C1=CSC2=NC3=C(CCC/C3=C\\c3cc(OC)c(OC)c(OC)c3)C(c3cc(OC)c(OC)c(OC)c3)N12 (stereo not given)", 22.4),
    ("NC(N)=N/N=C(\\c1ccccc1)C(O)c1ccccc1 (stereo not given)", 94.5),
    ("CCOC(=O)c1cc(C(=O)c2ccc(OC)c(OC)c2)n2ccncc12", 88.3),
    ("COc1ccc(N(C)c2ncnc3occ(C)c23)cc1", -36.1),
    ("CN1CCN(CCCn2c(=O)c3sc4ncccc4c3n3nnc(-c4ccccc4)c23)CC1", -2.66),
    ("CC(=O)OC1CC2C(C)(C)CCC[C@]2(C)C2=C1C(O)=C(C(C)C)C(=O)C2=O (stereo not given in full)", 4.43),
    ("CN(C)CCCSc1ccccc1NC1=C(Cl)C(=O)C(Nc2ccccc2SCCCN(C)C)=C(Cl)C1=O", 45.8),
    ("O=S(=O)(O)c1cccc(Nc2ccc3ccccc3c2)c1", 95.5),
    ("CCOC(=O)c1cc(C(=O)c2ccc(F)cc2F)n2ccccc12", 77.6),
    ("O=c1oc2c(cc1-c1ccc(F)cc1)C(O)Oc1ccccc1-2 (stereo not given)", 90.8),
    ("CS(=O)(=O)c1nccc(-c2c(-c3cccc(OCCN4CCOCC4)c3)nc3sccn23)n1", 47.8),
    ("OCC1OC(n2cnc3c(NCc4ccco4)ncnc32)C(O)C1O (stereo not given)", 50.8),
    ("COc1cc(CNC(=O)C2CSC3(C)c4ccccc4C(=O)N23)cc(OC)c1OC (stereo not given)", 90.2),
    ("Nc1ccc(CC[C@H]2CCC/C=C/[C@@H]3C[C@H](O)C[C@H]3[C@H](O)/C=C/C(=O)O2)cc1", -4.05),
    ("CC(=O)N[C@H](C(=O)N[C@@H](CCCNC(=N)N)C(=O)N[C@@H](CCCCN)C(=O)N[C@@H](CCCNC(=N)N)C(=O)N[C@]1(C)CCC/C=C\\CCC[C@@](C)(C(=O)N[C@@H](CC(C)C)C(=O)N[C@@H](CC(C)C)C(=O)N[C@@H](CCC(N)=O)C(=O)N[C@@H](CCC(=O)O)C(=O)N[C@@H](CCCNC(=N)N)C(=O)N[C@@H](CCC(=O)O)C(=O)N[C@@H](CC(C)C)C(=O)N[C@H](C(=O)N[C@@H](CCC(=O)O)C(N)=O)C(C)C)NC(=O)[C@H](CCCNC(=N)N)NC(=O)[C@H](CC(C)C)NC1=O)C(C)C", 104),
    ("O=C(Nc1nc(-c2ccccc2)nc2c1sc(=S)n2-c1ccccc1)C(F)(F)F", 88.5),
    ("O=[N+]([O-])c1ccc(NCSc2ccc(Cl)cc2)cc1", 91.8),
    ("CCn1cc(C(=O)O)c(=O)c2cc(F)c(N3CCNCC3)cc21", 104),
    ("COc1cc2cc(Oc3ccc(NC(=O)c4cc(C(F)(F)F)cc(C(F)(F)F)c4)cc3)c(C)nc2cc1OC", 17.7),
    ("O=C(Nc1ccc(OCc2nnc(-c3ccc(Cl)cc3)o2)c(F)c1)Nc1ccc(Cl)c(C(F)(F)F)c1", -22.2),
    ("CCN(CC)CCCC(Nc1c2ccc(Cl)cc2nc2ccc(OC)cc12)c1ccc(F)cc1 (stereo not given)", -33.3),
    ("O=C1/C=C/[C@@H](O)[C@@H]2C[C@@H](O)C[C@H]2/C=C/CCC[C@H](CCc2ccc(C(F)(F)F)cc2)O1", -8.16),
    ("CC(C)(C)c1ccc(S(=O)(=O)N[C@H]2CC[C@H]3[C@@H]4CCc5cc(O)c([N+](=O)[O-])cc5[C@H]4CC[C@]23C)cc1", 67.3),
    ("COc1cc2cc(Oc3ccc(NC(=O)Nc4ccc(Cl)c(Cl)c4)cc3)c(C)nc2cc1OC", 4.2),
    ("C[C@]12CC[C@@H]3c4ccc(OS(=O)(=O)O)cc4CC[C@H]3[C@@H]1CC[C@@H]2NS(=O)(=O)c1ccc(-c2ccccc2)cc1", 32.4),
    ("CN1C(=O)C2(Nc3cc(Cl)ccc3S2)c2cc(Cl)ccc21 (stereo not given)", 80.4),
    ("COc1ccc(C(=O)c2cc3c(OC)c(OC)c(OC)cc3[nH]2)cc1", 31.4),
    ("CN(C)CCCN1c2ccccc2CCc2ccc(Cl)cc21", 47.8),
    ("COc1ccc(NC(=O)C2CC3C=CC2C3)c([N+](=O)[O-])c1 (stereo not given)", 104),
]

---

Below, each entry is listed alongside its reported growth.
- Tested on: NCI-H23 lung
- method.description: NCI-60 one-dose screen, 48 h (100 = growth as untreated, 0 = no growth, -100 = all killed)
- reported.conditions: 10 µM
About 83,000 compounds went through this panel and 20% of them were active in at least one assay; those are over-represented in the sample as a whole.
endpoint: growth (%)

# molecule, endpoint.value
measured = [
    ("C#C[C@]1(O)CCC2C3CCc4cc(OC5CCCC5)ccc4C3CC[C@@]21C (stereo partly specified)", 76.6),
    ("S=C(NCc1ccccc1)NCc1ccccc1", 95),
    ("Cc1cc(CCNC=O)c(C)c2c1sc1ccccc12", 86.6),
    ("CCN(CC)CCN1c2nc3ccccc3cc2Sc2cc3ccccc3nc21", -5.59),
    ("O=C(Cn1cc(CO)nn1)Nc1nc2ccccc2s1", 101),
    ("COc1cc(NC(=O)C2=C(N3CCOCC3)/C(=C/c3ccc(Cl)cc3)CC2)cc(OC)c1OC", 94.6),
    ("COc1cc2cc(Oc3ccc(NC(=O)c4cccc(C(F)(F)F)c4)cc3)c(C)nc2cc1OC", 27.1),
    ("COc1ccc(-c2cc(-c3ccc(Cl)cc3)nc(SCCCC(=O)NO)n2)cc1OC", -8.91),
    ("NS(=O)(=O)c1ccc(N2N=C(c3ccccc3)CCC2=O)cc1", 95.4),
    ("COc1cc(-c2ccc(N=Nc3ccc4c(S(=O)(=O)O)ccc(N)c4c3O)c(OC)c2)ccc1N=Nc1ccc2c(S(=O)(=O)O)ccc(N)c2c1O", 101),
    ("O=C(O)c1ccc(-n2cc(CNc3ccc(Oc4ccccc4)cc3)c(-c3ccccc3)n2)cc1", 81.1),
]

---

- Tested on: EKVX NSCLC
- method.description: NCI-60 one-dose screen, 48 h
- reported.conditions: 10 µM
About 83,000 compounds went through this panel and 20% of them were active in at least one assay; those are over-represented in the sample as a whole. Activity calls are given as the source filed them. Rule for the calls: active = growth percent below 10; inactive = the rest.
Outcomes: 1.0 = active, 0.0 = inactive

# molecule, label.value
records = [
    ("Nc1cc(Br)c(-c2nn3c(CCC(=O)c4nc5ccccc5[nH]4)nnc3s2)c(Br)c1", 0.0),
    ("COc1cc(/C=C/c2cc(/C=C/c3ccc(O)c(OC)c3)nc(N)n2)ccc1O", 0.0),
    ("c1ccc2c(c1)Cc1ccccc1N2CCN1CCCCC1", 0.0),
    ("NC1=NC(c2ccc(Cl)cc2)C2=C(N1)/C(=C/c1ccc(Cl)cc1)CCC2 (stereo not drawn)", 0.0),
    ("COc1cc2nc(SCC(=O)Nc3cc(OC)c(OC)c(OC)c3)n(Cc3ccccc3)c(=O)c2cc1OC", 0.0),
    ("Nc1nc(-c2cccnc2)nc2c1sc(=S)n2-c1ccccc1", 0.0),
    ("OCCn1cccn1", 0.0),
    ("COc1cc(-c2nn(-c3cccc(NC(=O)CCNc4ccc(N5CCOCC5)cc4)c3)cc2-c2ccncc2)ccc1Cl", 0.0),
    ("COc1ccc(C(=O)CC(CC(=O)c2ccc(OC)cc2)c2c(C)nn(-c3ccccc3)c2Cl)cc1", 0.0),
    ("CCNCC(=O)Nc1ccc(C(=O)OCC)cc1", 0.0),
    ("O=C(CCCCCCC(=O)Nc1ccccc1)NO", 0.0),
    ("C(=N\\Nc1ncnc2sc3c(c12)CCNC3)/c1cccc2ccccc12", 0.0),
    ("O=C1c2ccccc2C(=O)c2c1ccc(C(Br)Br)c2Cl", 0.0),
    ("O=C(/C=C/C=C/c1c(C2CC2)nc2ccccc2c1-c1ccc(F)cc1)c1cccs1", 0.0),
    ("O=S(=O)(NCCCNc1nccc(-c2cn(-c3ccccc3)nc2-c2ccc(Cl)c(O)c2)n1)c1ccccc1", 0.0),
    ("O=C(Nc1ccccc1)Nc1ncnc2c1ncn2-c1ccccc1", 0.0),
    ("O=C(O)c1ccc(-n2cc(CNc3ccc(Cl)cc3)c(-c3ccccc3)n2)cc1", 0.0),
    ("CCCN(CCC)C(=O)[C@H](CC)[C@@H]1CC[C@@H](C)[C@@H]([C@H](C)[C@@H](O)[C@@H](C)C(=O)[C@H](CC)C2O[C@]3(C=C[C@@H](O)[C@]4(CC[C@@](C)([C@H]5CC[C@](O)(CC)[C@H](C)O5)O4)O3)[C@H](C)C[C@@H]2C)O1 (stereo partly drawn)", 1.0),
    ("COC(=O)C1OC1c1cc([N+](=O)[O-])ccc1OC (stereo not drawn)", 0.0),
    ("CC1OC2CC(=O)OC2C2=C1C(=O)c1c(O)c3c(c(O)c1C2=O)C1CC(O)C3(O)C(C)O1 (stereo not drawn)", 0.0),
    ("CCOC(=O)c1cc(C(=O)c2cc(OC)c(OC)c(OC)c2)n2nc(C)ccc12", 0.0),
    ("Nc1ccccc1NC(=O)c1ccc(CCCC(=O)Nc2ccc(C3CC3N)cc2)cc1 (stereo not drawn)", 0.0),
    ("Cc1ccc(Cl)cc1NC(=O)CCl", 0.0),
    ("CCOC(=O)C1=CSC2=NC3=C(CCC/C3=C\\c3cc(OC)c(OC)c(OC)c3)C(c3cc(OC)c(OC)c(OC)c3)N12 (stereo not drawn)", 0.0),
    ("Clc1ccc(C2=NN=C3C(Cc4ccccc4)=Nc4ccccc4N3C2)cc1", 0.0),
    ("Cc1[nH]c2ccccc2c1/C=N/Nc1ncnc2sc3c(c12)CCN(CC(=O)OC(C)(C)C)C3", 0.0),
    ("CCOC(=O)c1cc(C(=O)c2cc(OC)cc(OC)c2)n2ncc3ccccc3c12", 0.0),
    ("COc1cc(/C=C/c2cc(/C=C/c3ccc(O)c(OC)c3)[nH]c(=O)n2)ccc1O", 0.0),
    ("COc1cc(C2C(C#N)=C(N)Oc3cc(O)ccc32)cc(OC)c1OC (stereo not drawn)", 0.0),
    ("O=[N+]([O-])c1cccc(/C=N/NC(=S)NC23CC4CC(CC(C4)C2)C3)c1", 0.0),
    ("c1cnc2[nH]cc(-c3nc(-c4ccsc4)cs3)c2c1", 0.0),
    ("O=C1c2ccccc2-c2c1c1cccnc1c(=O)n2C[C@H](O)CO", 0.0),
    ("Cc1cc(CC(C)CC(C)(C)C)n(O)c(=O)c1 (stereo not drawn) (tested in a mixture with another compound)", 0.0),
    ("COc1cc(C(=O)/C=C/c2c[nH]c3ccccc23)cc(OC)c1OC", 0.0),
    ("O=C(CSc1nnc(-c2ccc(Cl)cc2)o1)Nc1ccc(C(=O)/C=C/c2ccc(Cl)cc2)cc1", 0.0),
    ("O=[N+]([O-])c1ccc2ncccc2c1Cl", 0.0),
    ("CC[C@@H](C(=O)[C@@H](C)[C@@H](O)[C@H](C)[C@@H]1O[C@@H]([C@@H](CC)C(=O)O)CC[C@@H]1C)C1O[C@]2(C=CC(=O)[C@]3(CC[C@@](C)([C@H]4CC[C@](O)(CC)[C@H](C)O4)O3)O2)[C@H](C)C[C@@H]1C (stereo partly drawn)", 0.0),
    ("COc1cc(-c2nn(-c3cccc(NC(=O)CN4CCOCC4)c3)cc2-c2cccnc2)ccc1Cl", 0.0),
]
